Biological target: Aβ42 (Homo sapiens, UniProt P05067)
Sequence (P05067 672-713): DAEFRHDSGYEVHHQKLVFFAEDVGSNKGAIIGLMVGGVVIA
Experiment: Th-T (thioflavin-T) assay of Aβ42 aggregation
Assay type: biochemical
Conditions: Aβ42 aggregation time course, reading M136
Would you kindly list Th-T fluorescence, mean of three wells for each of these compounds?
One number for each entry.

Below: 3 compounds and their reported Th-T fluorescence, mean of three wells.
# input Give its Th-T fluorescence, mean of three wells value. Item: C=C1CCC2C(C)(CCC=C(C)C)C(O)CCC2(C)C1Cc1c(O)c(C)c(C)oc1=O (stereo not shown) [Compound 9, higginsianin B]
# output 2.788

# input Give its Th-T fluorescence, mean of three wells value. Item: C=C1CC[C@H]2[C@]3(C)C[C@H](C=C(C)C)O[C@H]3CC[C@]2(C)[C@@H]1Cc1c(O)c(C)c(C)oc1=O [Compound 6, subglutinol B]
# output 3.034

# input Give its Th-T fluorescence, mean of three wells value. Item: C=C1CCC2C(C)(CC(=O)C=C(C)C)C(O)CCC2(C)C1Cc1c(OC)oc(CO)c(C)c1=O (stereo not shown) [Compound 19]
# output 3.617

Next:
# input Give its Th-T fluorescence, mean of three wells value. Item: C=C1CC[C@H]2[C@]3(C)C[C@@H](C=C(C)C)O[C@H]3CC[C@]2(C)[C@@H]1Cc1c(OC)oc(CO)c(C)c1=O [Compound 17]
# output 3.604

====

Test system: SF-268
Assay: cells
Set-up: species or system JFCR39 human cancer cell lines; JFCR39 panel growth inhibition, sulforhodamine B total protein after 48 h
Conditions: Homo sapiens, SF-268, 48 h
Would you kindly list GI50 for each of these molecules?

Below: 3 molecules and their reported GI50.
# input Give its GI50 value. Item: C=C1CCC2C(C)(CCC=C(C)C)C(O)CCC2(C)C1Cc1c(OC)oc(CO)c(C)c1=O (centres unmarked)
# output 12.3 µM

# input Give its GI50 value. Item: C=C1CC[C@@H]2[C@](C)(CC[C@H]3O[C@H](C=C(C)C)C[C@@]23C)[C@@H]1Cc1c(OC)oc(CO)c(C)c1=O
# output 12.7 µM

# input Give its GI50 value. Item: C=C1CCC2C(C)(CCC=C(C)C)C(O)CCC2(C)C1Cc1c(OC)oc(C)c(C(=O)OC)c1=O (centres unmarked)
# output 12.8 µM

Value sought for every listed molecule: GI50.
1. C=C1CCC2C(C)(CCC=C(C)C)C(O)CCC2(C)C1Cc1c(OC)oc(CO)c(C(=O)OC)c1=O (centres unmarked)
2. C=C1CC[C@@H]2[C@](C)(CC[C@H]3O[C@H](C=C(C)C)C[C@@]23C)[C@@H]1Cc1c(OC)oc(CO)c(C(=O)OC)c1=O

# output
20.2 µM
19.5 µM

====

Biological target: Aβ42 (Homo sapiens, UniProt P05067)
Test: Th-T (thioflavin-T) assay of Aβ42 aggregation
Assay type: biochemical
Conditions: column suffix _50; reading M4
ENDPOINT_LABEL: Th-T assay signal, mean of three wells (Fig. 7a)
One number for each entry.

Below: 4 compounds and their reported Th-T assay signal, mean of three wells (Fig. 7a).
# input Give its Th-T assay signal, mean of three wells (Fig. 7a) value. Item: C=C1CC[C@@H]2[C@](C)(CC[C@H]3O[C@H](C=C(C)C)C[C@@]23C)[C@@H]1Cc1c(OC)oc(CO)c(C(=O)OC)c1=O
# output 0.2093

# input Give its Th-T assay signal, mean of three wells (Fig. 7a) value. Item: C=C1CCC2C(C)(CCC=C(C)C)C(O)CCC2(C)C1Cc1c(OC)oc(CO)c(C)c1=O (centres unmarked)
# output 2.663

# input Give its Th-T assay signal, mean of three wells (Fig. 7a) value. Item: C=C1CC[C@@H]2[C@](C)(CC[C@H]3O[C@H](C=C(C)C)C[C@@]23C)[C@@H]1Cc1c(OC)oc(CO)c(C)c1=O
# output 0.2087

# input Give its Th-T assay signal, mean of three wells (Fig. 7a) value. Item: C=C1CCC2C(C)(CCC=C(C)C)C(O)CCC2(C)C1Cc1c(OC)oc(C)c(C(=O)OC)c1=O (centres unmarked)
# output 0.4485

Now turn to the next compound.
# input Give its Th-T assay signal, mean of three wells (Fig. 7a) value. Item: C=C1CCC2C(C)(CCC=C(C)C)C(O)CCC2(C)C1Cc1c(OC)oc(CO)c(C(=O)OC)c1=O (centres unmarked)
# output 0.2463

====

Target: Aβ42 (Homo sapiens, UniProt P05067)
Assay: Th-T (thioflavin-T) assay of Aβ42 aggregation
Format: biochemical
Settings: compound at 50; reading M45 of time course
ENDPOINT_LABEL: Th-T fluorescence, mean of three wells
Numbers only.

Below: 3 molecules and their reported Th-T fluorescence, mean of three wells.
# input Give its Th-T fluorescence, mean of three wells value. Item: C=C1CC[C@@H]2[C@](C)(CC[C@H]3O[C@H](C=C(C)C)C[C@@]23C)[C@@H]1Cc1c(OC)oc(CO)c(C)c1=O [Compound 20]
# output 2.11

# input Give its Th-T fluorescence, mean of three wells value. Item: C=C1CCC2C(C)(CCC=C(C)C)C(O)CCC2(C)C1Cc1c(OC)oc(C)c(C(=O)OC)c1=O (centres unmarked) [Compound 14]
# output 4.938

# input Give its Th-T fluorescence, mean of three wells value. Item: C=C1CCC2C(C)(CCC=C(C)C)C(O)CCC2(C)C1Cc1c(OC)oc(CO)c(C(=O)OC)c1=O (centres unmarked) [Compound 13]
# output 0.4534

Value sought for every listed molecule: Th-T fluorescence, mean of three wells.
1. C=C1CCC2C(C)(CCC=C(C)C)C(O)CCC2(C)C1Cc1c(OC)oc(CO)c(C)c1=O (centres unmarked) [Compound 12]
2. C=C1CC[C@@H]2[C@](C)(CC[C@H]3O[C@H](C=C(C)C)C[C@@]23C)[C@@H]1Cc1c(OC)oc(CO)c(C(=O)OC)c1=O [Compound 21]

# output
[1.494, 0.2151]

====

Target: Aβ42 (Homo sapiens)
Assay: Th-T (thioflavin-T) assay of Aβ42 aggregation
Assay type: biochemical
Conditions: reading M120; compound at 20 (head suffix _20)
Under this convention, YES denotes Th-T fluorescence, mean of three wells (Fig. 7a) strictly below 2 and NO denotes Th-T fluorescence, mean of three wells (Fig. 7a) at or above 2.

Below are worked cases with known answers.
# input hey, is Th-T fluorescence, mean of three wells (Fig. 7a) for C=C1CCC2C(C)(CCC=C(C)C)C(O)CCC2(C)C1Cc1c(OC)oc(C)c(C(=O)OC)c1=O (centres unmarked) lower than 2 or not?
# output YES

# input hey, is Th-T fluorescence, mean of three wells (Fig. 7a) for C=C1CCC2C(C)(CCC=C(C)C)C(O)CCC2(C)C1Cc1c(OC)oc(CO)c(C(=O)OC)c1=O (centres unmarked) lower than 2 or not?
# output YES

# input hey, is Th-T fluorescence, mean of three wells (Fig. 7a) for C=C1CCC2C(C)(CCC=C(C)C)C(O)CCC2(C)C1Cc1c(OC)oc(CO)c(C)c1=O (centres unmarked) lower than 2 or not?
# output NO

# input hey, is Th-T fluorescence, mean of three wells (Fig. 7a) for C=C1CC[C@@H]2[C@](C)(CC[C@H]3O[C@H](C=C(C)C)C[C@@]23C)[C@@H]1Cc1c(OC)oc(CO)c(C)c1=O lower than 2 or not?
# output NO

Next:
# input hey, is Th-T fluorescence, mean of three wells (Fig. 7a) for C=C1CC[C@@H]2[C@](C)(CC[C@H]3O[C@H](C=C(C)C)C[C@@]23C)[C@@H]1Cc1c(OC)oc(CO)c(C(=O)OC)c1=O lower than 2 or not?
# output YES

====

Biological target: Aβ42 (Homo sapiens, UniProt P05067)
Test: Th-T (thioflavin-T) assay of Aβ42 aggregation
Format: biochemical
Details: reading M122; compound at 10 (head suffix _10)
Entry flag: TRUE if Th-T fluorescence, mean of three wells (Fig. 7a) reaches 3; FALSE if it does not.

# input Item C=C1CCC2C(C)(CCC=C(C)C)C(O)CCC2(C)C1Cc1c(OC)oc(CO)c(C(=O)OC)c1=O (centres unmarked) with Th-T fluorescence, mean of three wells (Fig. 7a) of 3 or above?
# output FALSE

# input Item C=C1CC[C@@H]2[C@](C)(CC[C@H]3O[C@H](C=C(C)C)C[C@@]23C)[C@@H]1Cc1c(OC)oc(CO)c(C)c1=O with Th-T fluorescence, mean of three wells (Fig. 7a) of 3 or above?
# output TRUE

# input Item C=C1CC[C@@H]2[C@](C)(CC[C@H]3O[C@H](C=C(C)C)C[C@@]23C)[C@@H]1Cc1c(OC)oc(CO)c(C(=O)OC)c1=O with Th-T fluorescence, mean of three wells (Fig. 7a) of 3 or above?
# output FALSE

As a next step, examine the compound that follows.
# input Item C=C1CCC2C(C)(CCC=C(C)C)C(O)CCC2(C)C1Cc1c(OC)oc(CO)c(C)c1=O (centres unmarked) with Th-T fluorescence, mean of three wells (Fig. 7a) of 3 or above?
# output FALSE
